- Tested on: IL-17 production by CD4+ T cells under conditions which favor Th17 differentiation
- EXPERIMENT NOTES: Human Th17 assay (IL-17 production by CD4 T cells)
- Type: cell-based
- PROTOCOL CONDITIONS: Homo sapiens
pIC50: −log10 of the molar value.

{"COMPOUND": "COc1nc2ccc(C(O)(c3ccc(Cl)cc3)c3cncn3C)cc2c(Cl)c1CN1CCC(n2cccn2)CC1 (single isomer, unassigned) [Example 101c]", "ASSAYED TARGET": "IL-17 production by CD4+ T cells under conditions which favor Th17 differentiation", "pIC50": 6.44}
{"COMPOUND": "COc1nc2ccc(C(O)(c3ccc(Cl)cc3)c3cncn3C)cc2c(Cl)c1OC(C)C (single isomer, unassigned) [Example 99b]", "ASSAYED TARGET": "IL-17 production by CD4+ T cells under conditions which favor Th17 differentiation", "pIC50": 5.92}
{"COMPOUND": "COc1nc2ccc(C(O)(c3ccc(C(F)(F)F)nc3)c3cncn3C)cc2c(Cl)c1OCC1CC1 (single isomer, unassigned) [Example 88c]", "ASSAYED TARGET": "IL-17 production by CD4+ T cells under conditions which favor Th17 differentiation", "pIC50": 6.51}
{"COMPOUND": "COc1nc2ccc(C(O)(c3sc(C)nc3C)c3cnnn3C)cc2c(Cl)c1C (single isomer, unassigned) [Example 13c]", "ASSAYED TARGET": "IL-17 production by CD4+ T cells under conditions which favor Th17 differentiation", "pIC50": 7.19}
{"COMPOUND": "Cc1nc(C)c(C(O)(c2ccc3nc(N4CCC4)c(OC(C)C)c(Cl)c3c2)c2cnnn2C)s1 (single isomer, unassigned) [Example 82c]", "ASSAYED TARGET": "IL-17 production by CD4+ T cells under conditions which favor Th17 differentiation", "pIC50": 8.92}
{"COMPOUND": "COc1nc2ccc(C(O)(c3ccc(Cl)cc3)c3cncn3C)cc2c(Cl)c1OCC(F)(F)F (single isomer, unassigned) [Example 86c]", "ASSAYED TARGET": "IL-17 production by CD4+ T cells under conditions which favor Th17 differentiation", "pIC50": 7.68}
{"COMPOUND": "Cn1cncc1C(O)(c1ccc(C(F)(F)F)nc1)c1ccc2nc(N3CCC3)c(OCC3CC3)c(Cl)c2c1 (single isomer, unassigned) [Example 87c]", "ASSAYED TARGET": "IL-17 production by CD4+ T cells under conditions which favor Th17 differentiation", "pIC50": 6.92}
{"COMPOUND": "CC(C)c1c(Cl)nc2ccc(C(O)(c3cccnc3)c3cccc(Cl)c3)cc2c1Cl (stereo not shown)", "ASSAYED TARGET": "IL-17 production by CD4+ T cells under conditions which favor Th17 differentiation", "pIC50": 5.89}
{"COMPOUND": "CCOC(=O)c1c(C(F)(F)F)nc2ccc(C(O)(c3cccnc3)c3cccnc3)cc2c1C(F)(F)F", "ASSAYED TARGET": "IL-17 production by CD4+ T cells under conditions which favor Th17 differentiation", "pIC50": 6.70}
{"COMPOUND": "Cn1cncc1C(O)(c1ccc(Cl)cc1)c1ccc2nc(N3CCC3)c(OCC(F)(F)F)c(Cl)c2c1 (single isomer, unassigned) [Example 90c]", "ASSAYED TARGET": "IL-17 production by CD4+ T cells under conditions which favor Th17 differentiation", "pIC50": 6.70}
{"COMPOUND": "COc1nc2ccc(C(O)(c3ccc(C(F)(F)F)nc3)c3cncn3C)cc2c(Cl)c1OC(C)C (single isomer, unassigned) [Example 95b]", "ASSAYED TARGET": "IL-17 production by CD4+ T cells under conditions which favor Th17 differentiation", "pIC50": 7.21}
{"COMPOUND": "COc1nc2ccc(C(O)(c3cnc(C)n3C)c3cnc(C)n3C)cc2c(Cl)c1CN1CCC(C(F)(F)F)CC1", "ASSAYED TARGET": "IL-17 production by CD4+ T cells under conditions which favor Th17 differentiation", "pIC50": 7.77}
